System: Enterococcus faecalis ATCC 29212
Assay type: cell-based
Details: ATCC 29212, 24 h
Description: The biofilms of bacteria associated with the biofilm-related infections were cultured on 96-well flat bottom PS and on CL placed in 24-well plates. The bacteria at initial inoculums of 5 × 10^8 CFU/mL in MHB II were added to the plates and incubated at 37 °C under aerobic conditions. After 24 h of incubation, all cultures were rinsed three times with PBS and fresh medium was added. […]
Where a SMILES comes first, the peptide text is derived from it. The star is where a group is joined. Palmitoyl = CCCCCCCCCCCCCCCC(=O)*
readout kind: MBEC E. faecalis, CL (µg/mL)

CCCCCCCCCCCCCCCC(=O)N[C@@H](CCCCN)C(=O)N[C@@H](CCCCN)C(=O)N[C@@H](CCCCN)C(N)=O [Lipopeptide 7, C16-KKK-NH2]    16
CCCCCCCCCCCCCCCC(=O)N[C@@H](CCCCN)C(=O)NCC(=O)N[C@@H](CCCCN)C(N)=O [Lipopeptide 5, C16-KGK-NH2] (Palmitoyl-Lys-Gly-Lys-NH2)    32
